Hey, just so you know, these numbers are from the supplement of paper PMC4862054.

# Tested on: MDA-MB-468
# assay procedure: drug sensitivity score (DSS), CellTiter-Glo (DSS (AUC-based score)); higher = stronger drug effect (viability inhibition or cytotoxicity); extreme values may be limits of the assay
# assay conditions: incubation time: 72 h
recorded metric: drug sensitivity score
Returns: the value as a bare number; no unit string appended.

chemical string | assayed system | recorded metric | measured value
C[C@]1(c2nc3c(C(N)=O)cccc3[nH]2)CCCN1 | MDA-MB-468 | drug sensitivity score | 0
COc1cc(Nc2ncc3c(n2)-c2ccc(Cl)cc2C(c2c(F)cccc2OC)=NC3)ccc1C(=O)O | MDA-MB-468 | drug sensitivity score | 23.4
CO[C@H]1C[C@@H]2CC[C@@H](C)[C@@](O)(O2)C(=O)C(=O)N2CCCC[C@H]2C(=O)O[C@H]([C@H](C)C[C@@H]2CC[C@@H](OC(=O)C(C)(CO)CO)[C@H](OC)C2)CC(=O)[C@H](C)/C=C(\C)[C@@H](O)[C@@H](OC)C(=O)[C@H](C)C[C@H](C)/C=C/C=C/C=C/1C | MDA-MB-468 | drug sensitivity score | 14.7
OC[C@H]1O[C@@H](n2cnc3c2N=CNC[C@H]3O)C[C@@H]1O | MDA-MB-468 | drug sensitivity score | 0
O=C(c1ccc(C(=O)N2CCC(N3CCCC3)CC2)c(Nc2ccccc2)c1)N1CCC(N2CCCC2)CC1 | MDA-MB-468 | drug sensitivity score | 0

Per the records, this compound ( "CN1CC[C@H](c2c(O)cc(O)c3c(=O)cc(-c4ccccc4Cl)oc23)[C@H](O)C1" ) has drug sensitivity score equal to 18.1

Per the records, this compound ( "C=CCNC1=C2C[C@@H](C)C[C@H](OC)[C@H](O)[C@@H](C)/C=C(\C)[C@H](OC(N)=O)[C@@H](OC)/C=C\C=C(/C)C(=O)NC(=CC1=O)C2=O" ) has drug sensitivity score equal to 11.3
